These measurements were taken from paper PMC7825493.

assayedSystem: UniProtKB P07949
Sequence (P07949 29-1114): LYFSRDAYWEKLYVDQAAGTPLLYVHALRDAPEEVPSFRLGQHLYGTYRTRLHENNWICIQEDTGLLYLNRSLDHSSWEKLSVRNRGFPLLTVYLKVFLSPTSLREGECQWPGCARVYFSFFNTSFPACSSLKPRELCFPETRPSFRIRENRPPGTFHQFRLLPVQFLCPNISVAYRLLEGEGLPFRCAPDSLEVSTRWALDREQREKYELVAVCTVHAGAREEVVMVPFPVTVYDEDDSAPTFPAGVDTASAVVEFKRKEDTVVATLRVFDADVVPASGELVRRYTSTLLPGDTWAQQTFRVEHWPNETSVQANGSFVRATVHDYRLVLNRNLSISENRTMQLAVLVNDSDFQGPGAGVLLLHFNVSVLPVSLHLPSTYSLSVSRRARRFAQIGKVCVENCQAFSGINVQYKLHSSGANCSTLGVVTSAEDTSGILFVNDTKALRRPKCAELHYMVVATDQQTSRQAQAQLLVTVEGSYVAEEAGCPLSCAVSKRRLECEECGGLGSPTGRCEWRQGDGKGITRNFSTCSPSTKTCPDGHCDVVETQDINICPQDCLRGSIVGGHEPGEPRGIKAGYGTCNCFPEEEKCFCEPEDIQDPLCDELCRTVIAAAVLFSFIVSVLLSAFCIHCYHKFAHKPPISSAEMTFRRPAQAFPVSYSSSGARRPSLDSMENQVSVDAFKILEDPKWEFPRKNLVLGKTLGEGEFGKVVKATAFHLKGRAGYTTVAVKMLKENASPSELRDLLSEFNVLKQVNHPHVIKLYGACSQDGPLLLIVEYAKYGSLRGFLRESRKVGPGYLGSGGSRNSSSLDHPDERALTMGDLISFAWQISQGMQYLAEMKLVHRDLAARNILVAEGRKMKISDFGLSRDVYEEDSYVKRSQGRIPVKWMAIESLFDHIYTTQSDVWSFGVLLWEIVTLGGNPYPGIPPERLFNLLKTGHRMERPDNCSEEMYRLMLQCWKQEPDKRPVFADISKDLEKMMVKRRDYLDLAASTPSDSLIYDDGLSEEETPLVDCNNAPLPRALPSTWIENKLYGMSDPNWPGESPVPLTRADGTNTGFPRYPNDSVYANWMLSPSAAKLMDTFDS
assayText: HTRF KinEASE-TK (TR-FRET) kinase assay with recombinant RET, […] ATP
Assay type: biochemical
quantityKind: IC50 (nM)
Enter your answer as a number in nM; do not include the unit.

Recorded result, "O=C1Nc2ccccc2/C1=C1/Nc2ccccc2/C1=N\OCCN1CCNCC1" , IC50: 4.42
